- Test system: UACC-257 melanoma
- EXPERIMENTAL_PROTOCOL: NCI-60 one-dose screen, 48 h (100 = growth as untreated, 0 = no growth, -100 = all killed)
- MEASUREMENT_SETUP: 10 µM unless noted
About 83,000 compounds went through this panel and 20% of them were active in at least one assay; those are over-represented in the sample as a whole.
// classify: if (growth < 80%) TRUE else FALSE

[in] I wonder whether O=C1/C=C/[C@@H](O)[C@@H]2C[C@@H](O)C[C@H]2/C=C/CCC[C@H]([C@@H](O)CO)O1 has growth below 80%. Can you tell?
[out] TRUE

[in] Please determine if C#Cc1cccc(Nc2nc3cc([N+](=O)[O-])ccc3nc2Nc2ccc(O)cc2)c1 is below 80% in terms of growth.
[out] TRUE

[in] Just wondering, is growth of S=C(Cc1ccccc1)N1CCN(c2ccccc2Cl)CC1 below 80%?
[out] FALSE

[in] I'd appreciate it if you could check whether COc1cccc(NC(=O)OC(C)C)c1 has growth smaller than 80%.
[out] FALSE

[in] Would you kindly verify if growth of N/C(=N\OC(=O)c1ccccc1)C(Cc1ccccc1)C(=O)NOC(=O)c1ccccc1 (centres undefined) is strictly less than 80%?
[out] FALSE

[in] Does the reported growth of Cc1ccc(Nc2cccc3ccccc23)cc1 stay below 80%?
[out] FALSE

[in] Lab note: confirm whether the reported growth for this molecule is below 80%, equality not counting. molecule: COc1ccc(-c2cc(C(=O)Nc3ccc(Br)cc3)nc3[nH]c(=O)sc23)cc1
[out] TRUE

[in] Determine whether this molecule shows growth lower than 80% (ties excluded): c1ccc(-c2ccc(-c3ccccc3)[nH]2)cc1
[out] FALSE

[in] Is it true that growth reported for Clc1ccccc1CNc1c2ccccc2nc2ccccc12 is less than 80%?
[out] TRUE

[in] Please determine if COc1cc(C2CC(c3ccc(C)cc3)=NN2C=O)ccc1Oc1ccnc2cc(Cl)ccc12 (centres undefined) is below 80% in terms of growth.
[out] FALSE

[in] Is it true that growth reported for COc1cc(NCC(O)CN(CC(C)C)CC(C)C)c2ncccc2c1 (centres undefined) is less than 80%?
[out] TRUE

[in] Please check: growth for CCCCCCCC/C=C/CCCCCCCC1=NC(C)(C)CN1C(C)C , strictly under 80% or not?
[out] TRUE

[in] Is 80% strictly greater than the molecule's reported growth? molecule: O=C(/C=C/c1ccc(F)cc1)N1CCN(C(=O)/C=C/c2ccc(C(F)(F)F)cc2)CC1
[out] FALSE
